Experiment: Solubility of active drug substances in water
Assay type: physicochemical
Structures can show the parent of a compound that is named as a salt.
MEASURED ATTRIBUTE: solubility

COMPOUND: COc1ccc([C@@H]2Sc3ccccc3N(CCN(C)C)C(=O)[C@@H]2OC(C)=O)cc1 [Diltiazem hydrochloride]
RESULT: > 100 mg/mL
